# measurement target: Human immunodeficiency virus type 1 reverse transcriptase (Human immunodeficiency virus 1) (UniProt Q72547)
# test protocol: Inhibition of RNase H function of HIV1 reverse transcriptase using DNA/RNA hybrid as substrate at 10 uM by fluorescence spectrometer analysis
Each entry below carries its reported inhibition.
experimental readout: inhibition (%)

- O=C(O)/C(O)=C/C(=O)c1cn(Cc2ccc(F)c(Cl)c2)c2ccccc2c1=O: 25
- O=C(O)/C(O)=C/C(=O)c1cn(Cc2ccncc2)c2ccccc2c1=O: -2.6
- CCOC(=O)/C(O)=C/C(=O)c1cn(Cc2ccc(F)c(Cl)c2)c2c(Cl)cccc2c1=O: 24
- O=C(O)/C(O)=C/C(=O)c1cn(Cc2ccc3ccccc3n2)c2ccccc2c1=O: 16.4
- CCOC(=O)/C(O)=C/C(=O)c1cn(Cc2ccc(F)cc2F)c2ccccc2c1=O: 3
- CCOC(=O)/C(O)=C/C(=O)c1cn(Cc2cccc(F)c2)c2ccccc2c1=O [RDS-1624]: -9.4
- CCOC(=O)/C(O)=C/C(=O)c1cn(Cc2ccc(C)cc2C)c2ccccc2c1=O: 33
- CCOC(=O)/C(O)=C/C(=O)c1cn(Cc2ccc(F)c(Cl)c2)c2ccccc2c1=O: 18
- CCOC(=O)/C(O)=C/C(=O)c1cn(Cc2ccncc2)c2ccccc2c1=O: -5.6

====

Each entry below carries its reported inhibition.
# measurement target: Human immunodeficiency virus type 1 reverse transcriptase (Human immunodeficiency virus 1) (UniProt Q72547)
# test protocol: Inhibition of RNase H function of HIV1 reverse transcriptase using DNA/RNA hybrid as substrate at 10 uM by fluorescence spectrometer analysis
experimental readout: inhibition (%)

- O=C(O)/C(O)=C/C(=O)c1cn(Cc2c(Cl)cccc2Cl)c2ccccc2c1=O: 86.3
- O=C(O)/C(O)=C/C(=O)c1cn(Cc2ccccc2F)c2c(Cl)cccc2c1=O: 45
- CCOC(=O)/C(O)=C/C(=O)c1cn(Cc2cccc(OC)c2)c2ccccc2c1=O: 4.9
- COc1cccc(Cn2cc(C(=O)/C=C(\O)C(=O)O)c(=O)c3ccccc32)c1: 1.9
- COc1ccc(Cn2cc(C(=O)/C=C(\O)C(=O)O)c(=O)c3ccccc32)cc1: 45.8

====

Each entry below carries its reported inhibition.
# measurement target: UniProt Q72547
# test protocol: Inhibition of RNase H function of HIV1 reverse transcriptase using DNA/RNA hybrid as substrate at 10 uM by fluorescence spectrometer analysis
experimental readout: inhibition (%)

• O=C(O)/C(O)=C/C(=O)c1cn(Cc2ccc(Cl)cc2)c2ccccc2c1=O = 56.2
• O=C(O)/C(O)=C/C(=O)c1cn(Cc2ccc(F)c(Cl)c2)c2c(Cl)cccc2c1=O = 16
• O=C(O)/C(O)=C/C(=O)c1cn(Cc2ccccc2F)c2ccccc2c1=O = 45.1
• CCOC(=O)/C(O)=C/C(=O)c1cn(Cc2ccc(Cl)cc2)c2ccccc2c1=O = 16.1
• CCOC(=O)/C(O)=C/C(=O)c1cn(Cc2ccccc2OC)c2ccccc2c1=O = 11.4
• CCOC(=O)/C(O)=C/C(=O)c1cn(Cc2c(F)cccc2F)c2ccccc2c1=O = 4.1
• CCOC(=O)/C(O)=C/C(=O)c1cn(CCCCc2ccccc2)c2ccccc2c1=O = 19.4
• O=C(O)/C(O)=C/C(=O)c1cn(Cc2cc(F)ccc2F)c2ccccc2c1=O = 37
• CCOC(=O)/C(O)=C/C(=O)c1cn(Cc2cc(F)cc(F)c2)c2ccccc2c1=O = 24

====

# measurement target: Human immunodeficiency virus type 1 integrase (Human immunodeficiency virus 1, UniProt Q7ZJM1)
# Sequence (Q7ZJM1 whole entry): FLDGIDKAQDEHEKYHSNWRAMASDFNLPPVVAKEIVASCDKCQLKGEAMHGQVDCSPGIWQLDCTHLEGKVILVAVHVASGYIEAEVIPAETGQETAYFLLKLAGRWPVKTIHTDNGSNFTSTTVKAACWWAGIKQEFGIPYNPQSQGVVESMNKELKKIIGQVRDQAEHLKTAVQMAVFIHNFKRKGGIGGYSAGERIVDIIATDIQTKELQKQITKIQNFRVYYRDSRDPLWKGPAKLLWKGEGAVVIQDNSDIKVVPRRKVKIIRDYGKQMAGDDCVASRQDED
experimental readout: IC50

* O=C(O)/C(O)=C/C(=O)c1cn(Cc2ccc(O)cc2)c2ccccc2c1=O | > 37 µM
* CCOC(=O)/C(O)=C/C(=O)c1cn(Cc2ccc(Cl)cc2)c2ccccc2c1=O | > 37 µM
* O=C(O)/C(O)=C/C(=O)c1cn(Cc2ccc3ccccc3c2)c2ccccc2c1=O | 18 µM
* CCOC(=O)/C(O)=C/C(=O)c1cn(Cc2cccc(Cl)c2F)c2ccccc2c1=O | 1.08 µM
* CCOC(=O)/C(O)=C/C(=O)c1cn(Cc2ccc(O)cc2)c2ccccc2c1=O | > 333 µM
* O=C(O)/C(O)=C/C(=O)c1cn(Cc2ccncc2)c2ccccc2c1=O | > 1000 µM
* CCOC(=O)/C(O)=C/C(=O)c1cn(Cc2ccccc2)c2ccccc2c1=O | > 1000 µM
* CCOC(=O)/C(O)=C/C(=O)c1cn(Cc2ccccc2OC)c2ccccc2c1=O | > 333 µM
* CCOC(=O)/C(O)=C/C(=O)c1cn(Cc2ccccc2F)c2ccccc2c1=O | 125 µM
* CCOC(=O)/C(O)=C/C(=O)c1cn(Cc2c(F)cccc2F)c2ccccc2c1=O | > 12.3 µM
* O=C(O)/C(O)=C/C(=O)c1cn(Cc2ccc(F)c(Cl)c2)c2ccccc2c1=O | 21 µM
* COc1cccc(Cn2cc(C(=O)/C=C(\O)C(=O)O)c(=O)c3ccccc32)c1 | > 4.1 µM
* COc1ccc(Cn2cc(C(=O)/C=C(\O)C(=O)O)c(=O)c3ccccc32)cc1 | 28 µM
* CCOC(=O)/C(O)=C/C(=O)c1cn(Cc2ccc3ccccc3n2)c2ccccc2c1=O | > 1000 µM
* O=C(O)/C(O)=C/C(=O)c1cn(CCCCc2ccccc2)c2ccccc2c1=O | > 333 µM
* CCOC(=O)/C(O)=C/C(=O)c1cn(Cc2ccc(F)c(Cl)c2)c2c(Cl)cccc2c1=O | > 333 µM

====

# measurement target: Human immunodeficiency virus type 1 integrase (Human immunodeficiency virus 1, UniProt Q7ZJM1)
Each entry below carries its reported IC50.
experimental readout: IC50 (µM)

• CCOC(=O)/C(O)=C/C(=O)c1cn(Cc2ccc(F)c(Cl)c2)c2ccccc2c1=O = 266
• O=C(O)/C(O)=C/C(=O)c1cn(Cc2ccc(F)c(Cl)c2)c2c(Cl)cccc2c1=O = 9.8
• O=C(O)/C(O)=C/C(=O)c1cn(Cc2ccc([N+](=O)[O-])cc2)c2ccccc2c1=O = 27
• O=C(O)/C(O)=C/C(=O)c1cn(Cc2ccccc2F)c2ccccc2c1=O = 1.2
• O=C(O)/C(O)=C/C(=O)c1cn(Cc2cccc(Cl)c2F)c2ccccc2c1=O = 1.75
• O=C(O)/C(O)=C/C(=O)c1cn(Cc2ccccc2)c2ccccc2c1=O = 4
• O=C(O)/C(O)=C/C(=O)c1cn(Cc2ccc(Cl)cc2)c2ccccc2c1=O = 22
• O=C(O)/C(O)=C/C(=O)c1cn(Cc2c(F)cccc2F)c2ccccc2c1=O [RDS-1984] = 0.7
• O=C(O)/C(O)=C/C(=O)c1cn(Cc2ccccc2F)c2c(Cl)cccc2c1=O = 20.5
• O=C(O)/C(O)=C/C(=O)c1cn(Cc2cccc(F)c2)c2ccccc2c1=O = 4.6
• O=C(O)/C(O)=C/C(=O)c1cn(Cc2ccc3ccccc3n2)c2ccccc2c1=O = 70

====

Each entry below carries its reported pIC50.
# measurement target: Human immunodeficiency virus type 1 reverse transcriptase (Human immunodeficiency virus 1, UniProt Q72547)
pIC50: −log10 of the molar value.
experimental readout: pIC50

• O=C(O)/C(O)=C/C(=O)c1cn(Cc2ccc(O)cc2)c2ccccc2c1=O = 5.02
• O=C(O)/C(O)=C/C(=O)c1cn(Cc2c(F)cccc2F)c2ccccc2c1=O [RDS-1984] = 4.97
• O=C(O)/C(O)=C/C(=O)c1cn(Cc2ccc(Cl)cc2Cl)c2ccccc2c1=O = 4.35
• O=C(O)/C(O)=C/C(=O)c1cn(Cc2ccccc2F)c2cc(Cl)ccc2c1=O = 4.65
• O=C(O)/C(O)=C/C(=O)c1cn(Cc2c(Cl)cccc2Cl)c2ccccc2c1=O = 5.00
• Cc1ccc(Cn2cc(C(=O)/C=C(\O)C(=O)O)c(=O)c3ccccc32)c(C)c1 = 4.71
• O=C(O)/C(O)=C/C(=O)c1cn(Cc2ccc([N+](=O)[O-])cc2)c2ccccc2c1=O = 4.33
• COc1ccccc1Cn1cc(C(=O)/C=C(\O)C(=O)O)c(=O)c2ccccc21 = 4.79
• Cc1cc(C)cc(Cn2cc(C(=O)/C=C(\O)C(=O)O)c(=O)c3ccccc32)c1 = 4.42
• O=C(O)/C(O)=C/C(=O)c1cn(Cc2ccc(F)cc2F)c2ccccc2c1=O = 4.44

====

# test protocol: Selectivity index, ratio of CC50 for human HeLa-CD4-LTR-beta-gal cells to EC50 for HIV-1 3B infected in human HeLa-CD4-LTR-beta-gal cells
# Type: toxicity
# assay context: read-out: Ratio CC50/EC50
experimental readout: selectivity ratio

- O=C(O)/C(O)=C/C(=O)c1cn(Cc2cccc(F)c2)c2ccccc2c1=O: > 1.8
- CCOC(=O)/C(O)=C/C(=O)c1cn(Cc2cc(F)cc(F)c2)c2ccccc2c1=O: > 1.5
- CCOC(=O)/C(O)=C/C(=O)c1cn(Cc2cccc(OC)c2)c2ccccc2c1=O: 5.2
- O=C(O)/C(O)=C/C(=O)c1cn(Cc2ccc3ccccc3c2)c2ccccc2c1=O: > 10.4
